This collection of values is drawn from patent US20250304608A1.

system: mPTP-inactive Daoy cell; test: CellTiter-Glo cell viability inhibition, mPTP-inactive Daoy cell; format: cell-based; details: Homo sapiens, Daoy cell transfected with PPIF shRNA vector
pIC50: −log10 of the molar value.
Short version: pIC50 at least 6 is YES, less is NO.

compound	class.name
COc1ccc([P+](c2ccc(OC)cc2)(c2cccc3nn(C)cc23)c2cccc3c2ccn3C)cc1 [AB36444]	YES
c1ccc([P+](c2ccccc2)(c2cccc3[nH]ccc23)c2cccc3[nH]ncc23)cc1 [AB35482]	YES
c1ccc([P+](c2ccccc2)(c2ccc3cc[nH]c3c2)c2cnc3cc[nH]c3c2)cc1 [AB35549]	NO
COc1ccc([P+](c2ccc(OC)cc2)(c2ccnc3c2ccn3C)c2ccnc3c2ccn3C)cc1 [AB36448]	NO
c1ccc([P+](c2ccccc2)(c2ccc3[nH]ccc3c2)c2cc3[nH]ccc3cn2)cc1 [AB36405]	NO
c1ccc([P+](c2ccccc2)(c2cccnc2)c2ccc3[nH]ccc3c2)cc1 [AB35473]	NO
c1ccc([P+](c2ccccc2)(c2ccc3cc[nH]c3c2)c2ccc3cc[nH]c3c2)cc1 [AB35437]	YES
c1ccc([P+](c2ccccc2)(c2cc3cc[nH]c3cn2)c2cccc3[nH]ccc23)cc1 [AB35588]	YES
c1ccc([P+](c2ccccc2)(c2ccccc2)c2cccc3sccc23)cc1 [AB36535]	YES
Brc1c(C[P+](c2ccccc2)(c2ccccc2)c2ccccc2)[nH]c2ccccc12 [AB36542]	NO
c1ccc([P+](c2ccccc2)(c2cccc3[nH]ncc23)c2cccc3[nH]ncc23)cc1 [AB35480]	NO
c1ccc([P+](c2ccccc2)(c2ccccc2)c2cccc3cn[nH]c23)cc1 [AB36511]	NO
c1ccc([P+](c2ccccc2)(c2ccc3[nH]ccc3c2)c2ccc3[nH]ccc3c2)cc1 [AB35451]	YES
c1ccc([P+](c2ccccc2)(c2ccc3cc[nH]c3c2)c2ccc3cn[nH]c3c2)cc1 [AB35538]	NO
COc1ccc([P+](c2ccc(OC)cc2)(c2cccc3[nH]ccc23)c2cccc3[nH]ccc23)cc1 [AB35596]	YES
c1ccc([P+](c2ccccc2)(c2ccccc2)c2cccc3[nH]ccc23)cc1 [AB35450]	YES

====

tested on: Con-NCI-H82 cell; assay: CellTiter-Glo cell viability inhibition, Con-NCI-H82 cell; format: cell-based; details: Homo sapiens, NCI-H82 cell transfected with empty virus vector
Reported values of IC50 for individual entries
experimental.endpoint: IC50 (µM)

smi	system.under.test	measured.number
c1ccc([P+](c2ccccc2)(c2ccc3[nH]ccc3c2)c2ccc3[nH]ccc3c2)cc1	Con-NCI-H82 cell	0.13
c1ccc([P+](c2ccccc2)(c2cnc3cc[nH]c3c2)c2cccc3[nH]ccc23)cc1	Con-NCI-H82 cell	3.34
c1ccc([P+](c2ccccc2)(c2ccc3[nH]cnc3c2)c2cccc3[nH]ccc23)cc1	Con-NCI-H82 cell	1.66
Cn1ccc2c([P+](c3ccccc3)(c3ccccc3)c3cccc4c3cnn4C)cccc21	Con-NCI-H82 cell	1.27
c1ccc([P+](c2ccccc2)(c2cccc3[nH]ccc23)c2cccc3[nH]ncc23)cc1	Con-NCI-H82 cell	0.41
COc1ccc([P+](c2ccc(OC)cc2)(c2ccc(OC)cc2)c2cccc3[nH]ccc23)cc1	Con-NCI-H82 cell	0.36
c1ccc([P+](c2ccccc2)(c2ccccc2)c2cccc3c2ccn3CCN2CCCCC2)cc1	Con-NCI-H82 cell	0.51
c1ccc([P+](c2ccccc2)(c2ccccc2)c2cccc3sccc23)cc1	Con-NCI-H82 cell	0.46
COc1ccc([P+](c2ccccc2)(c2ccccc2)c2cccc3[nH]ccc23)cc1	Con-NCI-H82 cell	0.11
Cn1ccc2c([P+](c3ccccc3)(c3ccccc3)c3cccc4[nH]ncc34)cccc21	Con-NCI-H82 cell	1.08
c1ccc([P+](c2ccccc2)(c2ccc3cc[nH]c3c2)c2ccc3nc[nH]c3c2)cc1	Con-NCI-H82 cell	2.22
c1ccc(P(=[N+]=P(c2ccccc2)(c2ccccc2)c2ccccc2)(c2ccccc2)c2ccccc2)cc1	Con-NCI-H82 cell	0.18
CCCCCCCCCCCC[P+](c1ccccc1)(c1ccccc1)c1ccccc1	Con-NCI-H82 cell	0.19
c1ccc([P+](c2ccccc2)(c2cccc3cc[nH]c23)c2cccc3cc[nH]c23)cc1	Con-NCI-H82 cell	6.48
c1ccc([P+](CC[P+](c2ccccc2)(c2ccccc2)c2ccccc2)(c2ccccc2)c2ccccc2)cc1	Con-NCI-H82 cell	3.24
c1ccc([P+](c2ccccc2)(c2ccccc2)c2ccc3cc[nH]c3c2)cc1	Con-NCI-H82 cell	0.32
COc1ccc([P+](c2ccc(OC)cc2)(c2cccc3c2cnn3C)c2cccc3c2cnn3C)cc1	Con-NCI-H82 cell	3.07
COc1ccc([P+](c2ccc(OC)cc2)(c2cccc3[nH]ccc23)c2cccc3[nH]ccc23)cc1	Con-NCI-H82 cell	0.25
